Origin of the recorded values: patent EP1222194B1

Assay: Serum binding determination by ultrafiltration and HPLC
Assay type: in vitro ADME
Conditions: human, serum, % of compound bound to serum as determined by HPLC
Measured attribute: fraction unbound

NCCSCc1ncccc1SC1=C(C(=O)O)N2C(=O)[C@@H](NC(=O)/C(=N\O)c3nc(N)sc3Cl)[C@H]2SC1 [Cmpd 1]	0.1
NCCSCc1ccncc1SC1=C(C(=O)O)N2C(=O)[C@@H](NC(=O)/C(=N\O)c3nc(N)sc3Cl)[C@H]2SC1 [Cmpd 3]	0.1
N=C(N)NCCSCc1ncccc1SC1=C(C(=O)O)N2C(=O)[C@@H](NC(=O)/C(=N\O)c3nc(N)sc3Cl)[C@H]2SC1 [Cmpd 2-S]	0.17

----------
Experiment: Serum binding determination by ultrafiltration and HPLC
Assay type: in vitro ADME
Details: % of compound bound to serum as determined by HPLC; human serum
Measured attribute: fraction unbound

CN[C@H](CC(C)C)C(=O)N[C@H]1C(=O)N[C@@H](CC(N)=O)C(=O)N[C@H]2C(=O)N[C@H]3C(=O)N[C@H](C(=O)N[C@H](C(=O)O)c4cc(O)cc(O)c4-c4cc3ccc4O)[C@H](O)c3ccc(c(Cl)c3)Oc3cc2cc(c3O[C@@H]2O[C@H](CO)[C@@H](O)[C@H](O)[C@H]2O[C@H]2C[C@](C)(N)[C@H](O)[C@H](C)O2)Oc2ccc(cc2Cl)[C@H]1O [Van, Vancomycin]	0.45

----------
Test: Serum binding determination by ultrafiltration and HPLC
Format: in vitro ADME
Conditions: rhesus monkey, % of compound bound to serum as determined by HPLC
Measured attribute: fraction unbound

NCCSCc1ccncc1SC1=C(C(=O)O)N2C(=O)[C@@H](NC(=O)/C(=N\O)c3nc(N)sc3Cl)[C@H]2SC1 [Cmpd 3]	0.03
NCCSCc1ncccc1SC1=C(C(=O)O)N2C(=O)[C@@H](NC(=O)/C(=N\O)c3nsc(N)n3)[C@H]2SC1 [Cmpd 2]	0.19
N=C(N)NCCSCc1ncccc1SC1=C(C(=O)O)N2C(=O)[C@@H](NC(=O)/C(=N\O)c3nc(N)sc3Cl)[C@H]2SC1 [Cmpd 2-S]	0.12

----------
Test: In vitro stability of compounds in rat serum
Assay type: in vitro ADME
Conditions: % loss after 60 min exposure to rat serum as determined by HPLC; 37 °C
Parameter: degraded at 1 h. Scope: all listed entries.
Measured attribute: degraded at 1 h (%)

NCCSCc1ncccc1SC1=C(C(=O)O)N2C(=O)[C@@H](NC(=O)/C(=N\O)c3nc(N)sc3Cl)[C@H]2SC1	9
NCCSCc1ncccc1SC1=C(C(=O)O)N2C(=O)[C@@H](NC(=O)/C(=N\O)c3nsc(N)n3)[C@H]2SC1	2
C[C@@H](O)[C@H]1C(=O)N2C(C(=O)O)=C(SCCN=CN)C[C@H]12 [Imipenem, reference compound]	20
NCCSCc1ccncc1SC1=C(C(=O)O)N2C(=O)[C@@H](NC(=O)/C(=N\O)c3nc(N)sc3Cl)[C@H]2SC1	3
N=C(N)NCCSCc1ncccc1SC1=C(C(=O)O)N2C(=O)[C@@H](NC(=O)/C(=N\O)c3nc(N)sc3Cl)[C@H]2SC1	38
N=C(N)NCCSCc1ncccc1SC1=C(C(=O)O)N2C(=O)[C@@H](NC(=O)/C(=N\O)c3nsc(N)n3)[C@H]2SC1	10
